Data origin, for the record: ChEMBL document CHEMBL3045710

- System: Athelia rolfsii
- Protocol description: Antifungal activity against Athelia rolfsii assessed as growth inhibition at 28 degC
- Format: functional
- Condition notes: Agroathelia rolfsii; read-out: ED50 (the source's name)
Measurement kind: EC50 (µg/mL)
Write the answer as a number in µg/mL, unit excluded.

Sample records with EC50:
Molecule: CCCCCCCO/N=C(C)\C=C\C1C(C)=CCCC1(C)C (centres undefined)
EC50, µg/mL: 956
//
Molecule: CO/N=C(C)\C=C\C1C(C)=CCCC1(C)C (centres undefined)
EC50, µg/mL: 259
//
Molecule: CC1=CCCC(C)(C)C1/C=C/C(C)=N/OCCC(C)C (centres undefined)
EC50, µg/mL: 257

[in] Data request, read-out EC50, for CCCCCCCCO/N=C(C)\C=C\C1C(C)=CCCC1(C)C (centres undefined)
[out] 1360

[in] Now the molecule CC1=CCCC(C)(C)C1/C=C/C(C)=N\OC(C)C (centres undefined)
[out] 129

[in] Now the molecule CCCCCCCO/N=C(C)/C=C/C1C(C)=CCCC1(C)C (centres undefined)
[out] 975

[in] Now the molecule CCCCO/N=C(C)/C=C/C1C(C)=CCCC1(C)C (centres undefined)
[out] 113

[in] Now the molecule CO/N=C(C)/C=C/C1C(C)=CCCC1(C)C (centres undefined)
[out] 238

[in] Now the molecule CCCCCCO/N=C(C)\C=C\C1C(C)=CCCC1(C)C (centres undefined)
[out] 912

====

- System: Macrophomina phaseolina
- Protocol description: Antifungal activity against Macrophomina phaseolina assessed as growth inhibition at 28 degC
- Format: functional
- Condition notes: read-out: ED50 (the source's name)
Measurement kind: EC50
Please answer using a numeric value trailed by its unit.

Sample records with EC50:
Compound: CC1=CCCC(C)(C)C1/C=C/C(C)=N/OCC(C)C (centres undefined)
Subject of test: Macrophomina phaseolina
EC50: 103 µg/mL
--
Compound: CCCCCO/N=C(C)/C=C/C1C(C)=CCCC1(C)C (centres undefined)
Subject of test: Macrophomina phaseolina
EC50: 94.8 µg/mL
--
Compound: CCO/N=C(C)\C=C\C1C(C)=CCCC1(C)C (centres undefined)
Subject of test: Macrophomina phaseolina
EC50: 394 µg/mL
--
Compound: CCCCO/N=C(C)/C=C/C1C(C)=CCCC1(C)C (centres undefined)
Subject of test: Macrophomina phaseolina
EC50: 101 µg/mL
--
Compound: CCCCCCCCCCO/N=C(C)\C=C\C1C(C)=CCCC1(C)C (centres undefined)
Subject of test: Macrophomina phaseolina
EC50: 1760 µg/mL
--
Compound: CCCO/N=C(C)/C=C/C1C(C)=CCCC1(C)C (centres undefined)
Subject of test: Macrophomina phaseolina
EC50: 181 µg/mL
--
Compound: CCCCCCCO/N=C(C)/C=C/C1C(C)=CCCC1(C)C (centres undefined)
Subject of test: Macrophomina phaseolina
EC50: 717 µg/mL
--
Compound: CC1=CCCC(C)(C)C1/C=C/C(C)=N\OC(C)C (centres undefined)
Subject of test: Macrophomina phaseolina
EC50: 198 µg/mL
--
Compound: CC1=CCCC(C)(C)C1/C=C/C(C)=N\OCC(C)C (centres undefined)
Subject of test: Macrophomina phaseolina
EC50: 101 µg/mL
--
Compound: CCCCCCCO/N=C(C)\C=C\C1C(C)=CCCC1(C)C (centres undefined)
Subject of test: Macrophomina phaseolina
EC50: 1090 µg/mL

[in] Data request, read-out EC50, for CCCCCCO/N=C(C)/C=C/C1C(C)=CCCC1(C)C (centres undefined)
[out] 751 µg/mL

[in] Now the compound CC1=CCCC(C)(C)C1/C=C/C(C)=N/OCCC(C)C (centres undefined)
[out] 666 µg/mL

[in] Now the compound CCCCCCCCCCO/N=C(C)/C=C/C1C(C)=CCCC1(C)C (centres undefined)
[out] 957 µg/mL

[in] Now the compound CCCCO/N=C(C)\C=C\C1C(C)=CCCC1(C)C (centres undefined)
[out] 174 µg/mL

[in] Now the compound CCO/N=C(C)/C=C/C1C(C)=CCCC1(C)C (centres undefined)
[out] 732 µg/mL

[in] Now the compound CC1=CCCC(C)(C)C1/C=C/C(C)=N/OC(C)C (centres undefined)
[out] 126 µg/mL

[in] Now the compound CCCCCCCCO/N=C(C)\C=C\C1C(C)=CCCC1(C)C (centres undefined)
[out] 1110 µg/mL

[in] Now the compound CC1=CCCC(C)(C)C1/C=C/C(C)=N\OCCC(C)C (centres undefined)
[out] 625 µg/mL

[in] Now the compound CO/N=C(C)/C=C/C1C(C)=CCCC1(C)C (centres undefined)
[out] 307 µg/mL

[in] Now the compound CCCCCCO/N=C(C)\C=C\C1C(C)=CCCC1(C)C (centres undefined)
[out] 963 µg/mL

[in] Now the compound CCCCCCCCO/N=C(C)/C=C/C1C(C)=CCCC1(C)C (centres undefined)
[out] 824 µg/mL

[in] Now the compound CCCCCO/N=C(C)\C=C\C1C(C)=CCCC1(C)C (centres undefined)
[out] 31.1 µg/mL

[in] Now the compound CO/N=C(C)\C=C\C1C(C)=CCCC1(C)C (centres undefined)
[out] 311 µg/mL

[in] Now the compound CCCO/N=C(C)\C=C\C1C(C)=CCCC1(C)C (centres undefined)
[out] 236 µg/mL

====

- Test system: Athelia rolfsii
- Protocol description: Antifungal activity against Athelia rolfsii assessed as growth inhibition at 28 degC
- Assay type: functional
- Condition notes: Agroathelia rolfsii; read-out: ED50 (the source's name)
The threshold is 90 µg/mL. Values of EC50 beneath it are tagged rule met; values meeting or exceeding it are tagged rule not met.

Solved cases (5 shown):
Molecule: CCO/N=C(C)\C=C\C1C(C)=CCCC1(C)C (stereo not given)
Label class: rule not met
--
Molecule: CCCCCO/N=C(C)/C=C/C1C(C)=CCCC1(C)C (stereo not given)
Label class: rule met
--
Molecule: CCCCCCCCCCO/N=C(C)/C=C/C1C(C)=CCCC1(C)C (stereo not given)
Label class: rule not met
--
Molecule: CC1=CCCC(C)(C)C1/C=C/C(C)=N/OCC(C)C (stereo not given)
Label class: rule met
--
Molecule: CCCCCCCCCCO/N=C(C)\C=C\C1C(C)=CCCC1(C)C (stereo not given)
Label class: rule not met

[in] Hello, is EC50 of the following molecule strictly smaller than 90 µg/mL? CCO/N=C(C)/C=C/C1C(C)=CCCC1(C)C (stereo not given)
[out] rule not met

====

Entries annotated with measured EC50
- Tested on: Athelia rolfsii
- Protocol description: Antifungal activity against Athelia rolfsii assessed as growth inhibition at 28 degC
- Assay type: functional
- Condition notes: Agroathelia rolfsii; read-out: ED50 (the source's name)
Write the answer as a number in µg/mL, unit excluded.

Compound: CCCO/N=C(C)/C=C/C1C(C)=CCCC1(C)C (centres undefined)
Subject of test: Athelia rolfsii
Measured: 101
//
Compound: CC1=CCCC(C)(C)C1/C=C/C(C)=N\OCC(C)C (centres undefined)
Subject of test: Athelia rolfsii
Measured: 47.6
//
Compound: CC1=CCCC(C)(C)C1/C=C/C(C)=N/OC(C)C (centres undefined)
Subject of test: Athelia rolfsii
Measured: 35.5
//
Compound: CCCCO/N=C(C)\C=C\C1C(C)=CCCC1(C)C (centres undefined)
Subject of test: Athelia rolfsii
Measured: 88.9
//
Compound: CCCCCO/N=C(C)\C=C\C1C(C)=CCCC1(C)C (centres undefined)
Subject of test: Athelia rolfsii
Measured: 41.6
//
Compound: CCCCCCO/N=C(C)/C=C/C1C(C)=CCCC1(C)C (centres undefined)
Subject of test: Athelia rolfsii
Measured: 573

[in] Data request, read-out EC50, for CCCO/N=C(C)\C=C\C1C(C)=CCCC1(C)C (centres undefined)
[out] 132

[in] Now the compound CCCCCCCCO/N=C(C)/C=C/C1C(C)=CCCC1(C)C (centres undefined)
[out] 1040

[in] Now the compound CC1=CCCC(C)(C)C1/C=C/C(C)=N\OCCC(C)C (centres undefined)
[out] 367
